System: human megakaryocyte progenitors (CFU-Mk)
Experiment summary: Colony forming cell assay, human megakaryocyte progenitor (CFU-Mk) proliferation
Type: cell-based
Condition notes: Homo sapiens; single agent; read-out: IC50, total CFU-Mk (megakaryocyte progenitor proliferation)
What IC50 was measured for each of the following?
Give bare numbers, in nM.

structure_notation=C1=C/COCc2cc(ccc2OCCN2CCCC2)Nc2nccc(n2)-c2cccc(c2)COC/1 assay_system="human megakaryocyte progenitors (CFU-Mk)" measured=340

Okay, here is my list. What is IC50 for each of these?
1. N#CCNC(=O)c1ccc(-c2ccnc(Nc3ccc(N4CCOCC4)cc3)n2)cc1
2. N#CC[C@H](C1CCCC1)n1cc(-c2ncnc3[nH]ccc23)cn1
3. CC(C)(O)[C@H]1CC[C@H](Nc2ccc3ncc(-c4cccc(C(F)(F)F)c4)n3n2)CC1

Result:
[300, 200, 1560]

----------
Test system: human erythroid progenitors (CFU-E, BFU-E)
Experiment summary: Colony forming cell assay, human erythroid progenitor (CFU-E, BFU-E) proliferation
Format: cell-based
Condition notes: 336 h, single agent, 14 days, CFU-E and BFU-E
Property measured: IC50
Number first, unit second.

// solved cases for IC50 follow
compound="C1=C/COCc2cc(ccc2OCCN2CCCC2)Nc2nccc(n2)-c2cccc(c2)COC/1 [pacritinib]" assay_system="human erythroid progenitors (CFU-E, BFU-E)" property_measured=IC50 measured="0.28 µM"
compound="N#CC[C@H](C1CCCC1)n1cc(-c2ncnc3[nH]ccc23)cn1 [ruxolitinib]" assay_system="human erythroid progenitors (CFU-E, BFU-E)" property_measured=IC50 measured="0.11 µM"
compound="CC(C)(O)[C@H]1CC[C@H](Nc2ccc3ncc(-c4cccc(C(F)(F)F)c4)n3n2)CC1 [Compound (1)]" assay_system="human erythroid progenitors (CFU-E, BFU-E)" property_measured=IC50 measured="4.25 µM"

Data point: N#CCNC(=O)c1ccc(-c2ccnc(Nc3ccc(N4CCOCC4)cc3)n2)cc1 [momelotinib] ; IC50 = 1.6 µM
